STUDY_TARGET: human ether-à-go-go-related gene (hERG) potassium channel (human, UniProt Q12809);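 further: peak tail current of the secondary pulse compared with the same well before compound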
Sequence (Q12809 whole entry, looked up): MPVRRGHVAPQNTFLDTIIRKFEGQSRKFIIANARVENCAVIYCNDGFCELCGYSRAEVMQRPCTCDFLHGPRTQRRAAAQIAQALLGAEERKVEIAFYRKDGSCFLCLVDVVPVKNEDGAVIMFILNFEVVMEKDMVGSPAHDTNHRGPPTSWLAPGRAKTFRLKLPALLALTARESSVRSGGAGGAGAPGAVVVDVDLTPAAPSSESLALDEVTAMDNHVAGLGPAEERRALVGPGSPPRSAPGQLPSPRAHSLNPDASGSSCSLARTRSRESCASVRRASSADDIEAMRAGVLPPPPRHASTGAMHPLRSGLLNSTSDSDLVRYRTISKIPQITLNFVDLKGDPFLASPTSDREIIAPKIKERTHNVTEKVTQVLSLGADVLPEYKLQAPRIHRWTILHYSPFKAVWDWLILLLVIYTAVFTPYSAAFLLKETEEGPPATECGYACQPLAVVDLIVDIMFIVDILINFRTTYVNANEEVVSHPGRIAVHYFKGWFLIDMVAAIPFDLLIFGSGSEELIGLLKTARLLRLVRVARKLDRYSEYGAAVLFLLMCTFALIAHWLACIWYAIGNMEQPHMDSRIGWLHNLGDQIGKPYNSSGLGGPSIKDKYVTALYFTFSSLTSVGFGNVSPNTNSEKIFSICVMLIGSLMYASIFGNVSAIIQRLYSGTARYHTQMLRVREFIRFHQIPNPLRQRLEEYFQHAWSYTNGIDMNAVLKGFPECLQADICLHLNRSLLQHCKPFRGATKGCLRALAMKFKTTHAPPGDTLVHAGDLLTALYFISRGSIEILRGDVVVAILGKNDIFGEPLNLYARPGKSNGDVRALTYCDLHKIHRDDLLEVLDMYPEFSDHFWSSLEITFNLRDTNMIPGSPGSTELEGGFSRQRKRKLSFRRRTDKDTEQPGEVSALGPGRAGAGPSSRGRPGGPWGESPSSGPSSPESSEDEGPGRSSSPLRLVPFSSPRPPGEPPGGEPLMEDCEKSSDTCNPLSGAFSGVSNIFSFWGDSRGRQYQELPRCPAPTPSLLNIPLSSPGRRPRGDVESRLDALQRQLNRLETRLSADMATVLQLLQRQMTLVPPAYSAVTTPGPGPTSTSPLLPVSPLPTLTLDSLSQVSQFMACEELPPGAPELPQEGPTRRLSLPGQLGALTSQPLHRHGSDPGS
METHOD_DESCRIPTION: primary screen, population patch clamp on CHO cells stably expressing hERG; higher = less effect of the substance
Out of some 310,000 compounds screened, about 14,000 (4.5%) showed an effect of 50% or more. Effects have a minus sign here. The full list was thinned out, with strong results kept by preference.
PROPERTY_LABEL: hERG current change (%, negative = inhibition) at 10uM (%)
Give bare numbers, in %.

Example compounds with recorded hERG current change (%, negative = inhibition) at 10uM:
STRUCTURE_STRING	UNIT_ABBREVIATION	DATA_VALUE
CCOC(=O)N1CCN(C(=O)CN(c2cccc(C)c2)S(=O)(=O)c2ccc(C)cc2)CC1	%	-39.7
CN1CCCCc2c1nc1ccccc1c2N.O=C(O)c1cncc(Br)c1	%	-82.5

Please find the next compound below.
Input line: So what hERG current change (%, negative = inhibition) at 10uM did O=C(O)c1cncc(Br)c1 get with human ether-à-go-go-related gene (hERG) potassium channel (human, UniProt Q12809)?
Output line: 27.3

* * *

STUDY_TARGET: human ether-à-go-go-related gene (hERG) potassium channel (human, UniProt Q12809);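 further: peak tail current of the secondary pulse compared with the same well before compound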
METHOD_DESCRIPTION: primary screen, population patch clamp on CHO cells stably expressing hERG; higher = less effect of the substance
The whole screen tested about 310,000 compounds, of which about 14,000 (4.5%) showed an effect of 50% or more. The effect is printed as a negative number. Only a selection was taken, and strong results are over-represented in it overall.
For each record, write down the corresponding hERG current change (%, negative = inhibition) at 10uM.
One number for each entry, in %.

Examples from the recorded data:
COMPOUND	DATA_VALUE
N#Cc1cc([N+](=O)[O-])cnc1N(CCO)CCO	-1.1
CC1=C(C(=O)OC(C)C)C2(O)C(=O)c3ccccc3C2(O)N1 (stereo not shown)	12

Give hERG current change (%, negative = inhibition) at 10uM for each listed item.
1. CCOC(=O)CSc1ncc(-c2ccccc2)nn1
2. O=C(c1ccc(S(=O)(=O)N2CCOCC2)cc1)N1CCc2ccccc2C1
3. N#CCCn1[nH]c(-c2ccccc2)cc1=O
4. COc1ccc(S(=O)(=O)NC(C)C(=O)NCc2ccccn2)cc1Cl (stereo not shown)
5. Cc1cc(C(=O)CSc2nc3ccccc3[nH]2)c(C)n1CC1CCCO1 (stereo not shown)
6. CSc1ccc(/C=N\Nc2nncn2N)cc1.Cl
7. CC1CCCCN1CCNc1nc(=S)[nH]c2ccccc12 (stereo not shown)

Output line:
-6.58
-4.25
5.16
7.6
-12.5
10.9
-67.5

State recorded hERG current change (%, negative = inhibition) at 10uM for all listed compounds.
1. Cc1ccc(C(O)(COC(=O)C(C)C)COC(=O)C(C)C)c(O)c1
2. CC1CCCCN1CCCNc1c(C=O)c(=O)[nH]c2ccccc12 (stereo not shown)
3. CC1CCN(C2=NN3C(=N)/C(=C\c4ccc(OC(=O)c5ccco5)cc4)C(=O)N=C3S2)CC1
4. Cc1cc(C)cc(Nc2cc(C)nc3nc(C)nn23)c1

Output line:
[3.76, -3.96, 12.6, -14.7]

* * *

STUDY_TARGET: human ether-à-go-go-related gene (hERG) potassium channel (human, UniProt Q12809);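 further: peak tail current of the secondary pulse compared with the same well before compound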
METHOD_DESCRIPTION: primary screen, population patch clamp on CHO cells stably expressing hERG; higher = less effect of the substance
Description: Briefly, Chinese hamster ovary (CHO) cells stably expressing the hERG channel were dislodged from tissue culture flasks and dispensed into PPC plates. […] During the recording, background leak currents were estimated by a 100 ms step to -80 mV from an initial holding potential of -70 mV and subtracted from the subsequent current measurement. The campaign was conducted in two phases using slight differences in recording protocol. […]
The whole screen tested about 310,000 compounds, of which about 14,000 (4.5%) showed an effect of 50% or more. Effects have a minus sign here. Shown is part of a subset that was picked to be rich in strong results.
Kindly supply the reported hERG current change (%, negative = inhibition) at 10uM values for the records listed here.
Answers are plain numbers, in %.

COMPOUND	DATA_VALUE
CCNC(=S)Nc1ccc(Cl)cc1Cl	-14
CN1/C(=C\C(=O)CSc2nnc(NCc3ccccc3)s2)C(C)(C)c2ccccc21	-13.1
O=C(NCc1cccnc1)/C(=C/c1ccccc1)NC(=O)c1ccccc1	-34.5
O=C(Nc1cccc(S(=O)(=O)N2CCCCC2)c1)Nc1ccc(Cl)cc1Cl	7.77
O=C(CN1CCC(NC(=O)Cc2ccccc2)CC1)Nc1ccccc1Br	-29.2
COc1ccccc1CNC(=O)CN1CCC(NC(=O)c2ccccc2F)CC1.Cl	-14.5

For each listed entry, give its hERG current change (%, negative = inhibition) at 10uM.
1. COc1ccccc1N1CCN(c2ccc([N+](=O)[O-])cn2)CC1
2. COc1ccc(/C=C(\NC(=O)c2ccccc2)C(=O)NCc2cccnc2)cc1
3. Cc1ccc(C(=O)N/C(=C\c2ccccc2)C(=O)NCc2cccnc2)cc1
4. COc1ccc(/C=C(\NC(=O)c2ccccc2)C(=O)N/N=C/c2cccnc2)cc1
5. CC1(C)CC(=O)c2sc(NC(=O)c3ccccc3)nc2C1
6. COc1ccccc1CNC(=O)CN1CCC(n2cnc3cc(F)ccc32)CC1

Output line:
1: 0.823; 2: -70.5; 3: -71.9; 4: -5.03; 5: 2.82; 6: -66
